# Read-out: Low-density lipoprotein receptor (LDLR), LDLR (gene 3949)
# assay_text: BSK_CASM3C_LDLR: BioMAP Diversity Plus: CASM3C Assay for Low-density lipoprotein receptor (LDLR) Biomarker Activity (AID 2283045);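 note: LDLR protein level on the cell surface quantified by ELISA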
# condition_parameters: primary human coronary artery smooth muscle cells; actives raise or lower the signal
The source made the active and inactive calls. Rule for the calls: active = hit-call score of the fitted dose curve at least 0.9, where 1 is the maximum; inactive = score below 0.9.
Choose the fitting class; nothing outside active, inactive is accepted.

Study these solved cases before continuing.
{"mol_smiles": "OCCO", "classification": "inactive"}
{"mol_smiles": "Cc1cn([C@H]2C[C@H](N=[N+]=[N-])[C@@H](CO)O2)c(=O)[nH]c1=O", "classification": "inactive"}

We now examine a further compound.
Req: For CCN(CC)C(=O)c1cc(S(=O)(=O)Cc2ccccc2)c(N2CCC(c3ccccc3)CC2)cc1N(CC)CCN(C)C , what call appears in the results of this test?
Resp: active
